Target: T1, RBM5 RRM1-ZnF1 F142A/F144A (human, UniProt P52756 94-210, F142A;F144A)
T1 sequence: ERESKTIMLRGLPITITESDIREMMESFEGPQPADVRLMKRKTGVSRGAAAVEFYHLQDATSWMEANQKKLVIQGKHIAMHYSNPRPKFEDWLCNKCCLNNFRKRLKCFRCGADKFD
Assay: ITC; ITC: 20 mM MES pH 6.5, 100 mM NaCl, 2 mM BME, 25 C; NMR: 20 mM MES pH 6.5, 100 mM (single RRMs) or 400 mM (multidomain) NaCl, 1 mM DTT, 298 K
Details: protein: recombinant

# BINDER, Kd, nM
rows = [
    ("UGGCUCUUCUCU (ssRNA) [GGCU_12]", 448),
]
